Biological target: BCoR-BCL6 (Homo sapiens)
pIC50: −log10 of the molar value.
Value Kind: pIC50

N#Cc1cc([N+](=O)[O-])ccc1Nc1ccc2[nH]c(=O)[nH]c2c1; 5.37
O=c1[nH]c2ccc(Nc3cc(NC4CCOCC4)c([N+](=O)[O-])cc3Cl)cc2[nH]1; 6.89
COC(=O)c1ccc(Nc2ccc3[nH]c(=O)[nH]c3c2)c(Cl)c1; 5.07
NC(=O)c1ccc(Nc2ccc3[nH]c(=O)[nH]c3c2)c(Cl)c1; 4.37
O=c1[nH]c2ccc(Nc3ccc([N+](=O)[O-])cc3Br)cc2[nH]1; 4.08
O=c1[nH]c2ccc(Nc3cc(NCCCO)c([N+](=O)[O-])cc3Cl)cc2[nH]1; 6.62
Nc1cc(Nc2ccccc2)c2nonc2c1[N+](=O)[O-]; 4.16
O=[N+]([O-])c1c(NCCCO)cc(Nc2ccc(F)cc2)c2nonc12; 4.85
O=c1[nH]c2ccc(Nc3ccc([N+](=O)[O-])cc3Cl)cc2[nH]1; 5.35
O=C(O)CC(C(=O)O)N1C(=O)/C(=C2/C(=O)Nc3ccc(Br)cc32)SC1=S (stereo not drawn); 3.70
CCOC(=O)CCNc1cc(Nc2ccc3[nH]c(=O)[nH]c3c2)c(Cl)cc1[N+](=O)[O-]; 6.37
O=C(O)c1ccc(Nc2ccc3[nH]c(=O)[nH]c3c2)c(Cl)c1; 4.21
O=c1[nH]c2ccc(Nc3cc(OC4CCOCC4)c([N+](=O)[O-])cc3Cl)cc2[nH]1; 6.66
N#Cc1ccc(Nc2ccc3[nH]c(=O)[nH]c3c2)c(Cl)c1 [TP-021n]; 3.96
O=c1[nH]c2ccc(Nc3cc(NCc4cccnc4)c([N+](=O)[O-])cc3Cl)cc2[nH]1; 6.82
O=C(O)CCNc1cc(Nc2ccc3[nH]c(=O)[nH]c3c2)c(Cl)cc1[N+](=O)[O-]; 6.89
O=C1CCc2cc(Nc3cc(OC4CCOCC4)c([N+](=O)[O-])cc3Cl)ccc2N1; 7.00
